Data origin: PubChem BioAssay (NCI)

test system: HT29 colon; experiment: NCI-60 one-dose screen, 48 h; settings: 10 µM unless noted
This is part of a sample that, as a whole, favours compounds with a hit. Of some 83,000 tested, about 20% had one in any assay. Activity calls are given as the source filed them. Rule for the calls: active = growth percent below 10; inactive = the rest.
I would appreciate it if you answered using one of these outcomes: yes (active), no (inactive)

Study these solved cases before continuing.
>>> df
                                   molecule  class_assignment
0  CCOP1(=O)CC(C)=C(Cl)C(P(=O)(O)O)C1 (stereo not drawn)                no
1  CC1=C[C@@H]2c3c(c(O)c(O)c4oc5cc(O)cc(O)c5c(=O)c34)[C@@H](c3cc(O)c(O)c4oc5cc(O)cc(O)c5c(=O)c34)[C@@H]2C(C)(C)C1               yes
2  CCCCCCCCCc1cc[n+](CC(=O)c2ccc([N+](=O)[O-])cc2)cc1               yes
3                  NC(N)=N/N=C/c1cccc(Br)c1                no

Which result was noted for this molecule in the test: "COc1cc(CCNc2cnc3cc(N)cc(N)c3n2)cc(OC)c1"
no

// outcome(item) with item = CCC(CCCN1C(=O)c2ccccc2C1=O)Nc1cc(OC)cc2c(C)ccnc12 (stereo not drawn)
no

Name the outcome recorded for "COC(=O)c1cc(=O)nc(N/N=C/c2ccccc2O)s1" in the assay.
no

Name the outcome recorded for "Cc1cc2c(-c3nc4ccccc4n3C)c(O)c(O)cc2c(O)c1-c1c(C)cc2c(-c3nc4ccccc4n3C)c(O)c(O)cc2c1O" in the assay.
no

---

system: CCRF-CEM leukemia; assay: NCI-60 one-dose screen, 48 h (100 = growth as untreated, 0 = no growth, -100 = all killed); conditions: 10 µM
Compounds without any hit were thinned out: in the full panel of roughly 83,000, 20% have a hit.
Classify: Condition met when growth is strictly less than 80%; Condition not met when growth is not.

As a guide, the following entries are already answered.
>>> print(df.to_string())
                                   molecule   class_assignment
0  O=C1c2cc([N+](=O)[O-])ccc2-c2cc(Cl)c(NC(=O)C(F)(F)F)cc21  Condition not met
1                   CCOC(=O)NC1=NCC(C)(C)S1  Condition not met
2  Nc1nc2c(c3cnccc13)C(c1ccc(Cl)c(Cl)c1)Cc1cnccc1-2 (stereo not given)      Condition met
3  CCN(CCO)CCNc1ccc(C)c2sc3cc(OC)ccc3c(=O)c12      Condition met
4  CC([C@H]1CC=C2C3CCC4=C[C@@H](N(C)C)CC[C@]4(C)C3CC[C@@]21C)N(C)C (stereo not given in full)      Condition met
5  O=C(/C=C\c1ccc(NCc2ccc(C(=O)O)cc2)cc1)CCl      Condition met
6  CC1(C)NCCC[C@]2(C)[C@H]3CC=C4[C@@H]5C[C@](C)(COC(=O)c6ccccc6C(=O)O)CC[C@]5(C)CC[C@@]4(C)[C@]3(C)CC[C@@H]12      Condition met
7  CCCC(=O)NNc1[nH]c(-c2cc(OC)c(OC)c(OC)c2)cc1C(=O)OCC      Condition met

Would you kindly look at the next entry?
Strictly below 80% in growth? CCC1(CC)C(OC)NC(Br)=C(C#N)C1(C#N)C(N)=O (stereo not given)
Condition not met
